I'd be grateful if you could share measured Emax (%) for these entries.
- TGT: Met (HGF receptor) (UniProt P08581 25-1390, limits assumed)
- Sequence (P08581 25-1390 limits assumed): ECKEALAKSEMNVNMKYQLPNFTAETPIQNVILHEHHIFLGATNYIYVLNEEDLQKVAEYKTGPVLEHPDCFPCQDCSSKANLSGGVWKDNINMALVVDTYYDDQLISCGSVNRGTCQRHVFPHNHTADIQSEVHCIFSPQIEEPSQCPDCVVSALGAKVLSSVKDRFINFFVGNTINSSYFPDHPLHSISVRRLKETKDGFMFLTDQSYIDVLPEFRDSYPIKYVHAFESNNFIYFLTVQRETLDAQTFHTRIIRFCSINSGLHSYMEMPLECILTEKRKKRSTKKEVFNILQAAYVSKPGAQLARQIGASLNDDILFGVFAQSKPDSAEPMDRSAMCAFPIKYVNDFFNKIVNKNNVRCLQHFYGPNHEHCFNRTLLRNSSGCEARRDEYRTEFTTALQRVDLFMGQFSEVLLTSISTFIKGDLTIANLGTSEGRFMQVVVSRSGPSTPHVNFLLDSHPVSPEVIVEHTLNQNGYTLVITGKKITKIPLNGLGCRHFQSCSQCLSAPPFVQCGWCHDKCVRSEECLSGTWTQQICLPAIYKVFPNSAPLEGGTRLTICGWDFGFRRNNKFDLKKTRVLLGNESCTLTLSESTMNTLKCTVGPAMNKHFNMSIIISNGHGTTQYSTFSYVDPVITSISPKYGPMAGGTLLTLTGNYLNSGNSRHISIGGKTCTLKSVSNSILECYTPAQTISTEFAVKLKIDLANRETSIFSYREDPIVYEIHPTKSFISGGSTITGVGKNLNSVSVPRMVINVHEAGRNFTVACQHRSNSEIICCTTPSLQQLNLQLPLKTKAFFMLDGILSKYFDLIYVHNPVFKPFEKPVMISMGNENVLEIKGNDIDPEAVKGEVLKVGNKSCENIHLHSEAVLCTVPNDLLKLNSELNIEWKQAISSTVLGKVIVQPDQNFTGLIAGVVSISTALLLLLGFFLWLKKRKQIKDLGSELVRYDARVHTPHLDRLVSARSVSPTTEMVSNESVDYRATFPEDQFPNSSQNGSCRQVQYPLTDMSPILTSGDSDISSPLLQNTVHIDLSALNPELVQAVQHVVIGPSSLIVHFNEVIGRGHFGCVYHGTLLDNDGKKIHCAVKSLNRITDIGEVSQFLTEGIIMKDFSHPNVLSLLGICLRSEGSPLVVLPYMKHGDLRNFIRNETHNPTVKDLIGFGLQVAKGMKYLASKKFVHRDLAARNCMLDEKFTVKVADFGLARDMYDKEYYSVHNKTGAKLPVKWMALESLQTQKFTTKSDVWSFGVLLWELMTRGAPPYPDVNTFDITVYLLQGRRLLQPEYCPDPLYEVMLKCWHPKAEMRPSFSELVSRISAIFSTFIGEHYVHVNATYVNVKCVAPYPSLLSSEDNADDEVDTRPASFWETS
- EXPERIMENT NOTES: cell-based or functional assay
Positions of bridges follow the written chain, without caps; N, C: chain ends. No end group written: not given here.
API: value field is a number in %; no unit string.

QUERY: Supply reported Emax (%) belonging to this binder: AET-aMD4dY-PAS49 (two disulfide bonds in the molecule) peptide: AETCRQFNRRTHEVWNLDCGAAPAAPAPAAPAAPAPAAPAAPAPAAPAAPAPAAPAAPAPAAPAAPAPAGCRQFNRRTHEVWNLDC
RESULT: 82.8

QUERY: Supply reported Emax (%) belonging to this binder: AET-aMD4dY-GS15 (disulfide 4-19, 37-52) peptide: AETCRQFNRRTHEVWNLDCGGGGGSGGGGSGGGGSGCRQFNRRTHEVWNLDC
RESULT: 45.8

QUERY: Supply reported Emax (%) belonging to this binder: AET-PAS-aMD4dY-PEG11 (disulfide 4-19, 44-59; also: PEG11 in name, stated same as AET-aMD4dY-PAS22) peptide: AETCRQFNRRTHEVWNLDCGAAPAAPAPAAPAAPAPAAPAAPGCRQFNRRTHEVWNLDC
RESULT: 100

QUERY: Supply reported Emax (%) belonging to this binder: AET-aMD4dY-PAS100 (two disulfide bonds in the molecule) peptide: AETCRQFNRRTHEVWNLDCGAAPAAPAPAAPAAPAPAAPAAPAPAAPAAPAPAAPAAPAPAAPAAPAPAAPAAPAPAAPAAPAPAAPAAPAPAAPAAPAPAAPAAPAPAAPAAPAPAAPAGCRQFNRRTHEVWNLDC
RESULT: 47.2

Reference source for all entries: patent US20220396819A1
